Each recorded value in this set is attributed to patent US10745401B2.

Assign Ki to each entry below.
TESTED_TARGET: human D2 receptor (Homo sapiens (Human), UniProt P14416)
Sequence (P14416 whole entry): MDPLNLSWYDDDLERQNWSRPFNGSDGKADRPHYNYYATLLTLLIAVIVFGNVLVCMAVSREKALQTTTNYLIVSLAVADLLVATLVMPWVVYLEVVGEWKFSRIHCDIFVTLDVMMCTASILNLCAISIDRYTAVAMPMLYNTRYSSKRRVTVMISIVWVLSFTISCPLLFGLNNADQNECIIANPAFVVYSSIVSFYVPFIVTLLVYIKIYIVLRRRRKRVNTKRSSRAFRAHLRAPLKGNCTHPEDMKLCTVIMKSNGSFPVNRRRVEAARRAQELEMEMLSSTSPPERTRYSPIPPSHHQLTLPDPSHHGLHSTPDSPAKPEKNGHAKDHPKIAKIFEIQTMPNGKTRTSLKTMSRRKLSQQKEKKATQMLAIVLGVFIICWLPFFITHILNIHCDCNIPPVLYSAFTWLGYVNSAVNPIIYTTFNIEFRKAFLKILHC
TEST: Test 1: binding activity for human D2 receptor ([3H]Spiperone, CHO cell membrane fraction)
MEASUREMENT_CONTEXT: human D2 receptor, [3H]Spiperone
# output: bare number, implied unit nM

// recorded Ki for CC(C)c1ncc2c(=O)n(CCN3CCN(c4nsc5ccccc45)CC3)ccc2n1 [Example 181] : 3690

// recorded Ki for CC1(C)CN(CCN2CCC(c3noc4cc(F)ccc34)CC2)C(=O)c2ncccc21 [Example 119] : 105

// recorded Ki for O=C1c2cnc(C3CC3)nc2CCN1CCN1CCN(c2nsc3ccccc23)CC1 [Example 94] : 236

// recorded Ki for Cc1n[nH]c2c1C(=O)N(CCN1CCC(c3noc4ccccc34)CC1)CC2 [Example 99] : 280

// recorded Ki for O=C1c2cnn(C3CC3)c2CCN1CCN1CCN(c2nsc3ccccc23)CC1 [Example 160] : 170

---

TESTED_TARGET: human 5-HT1A receptor (Homo sapiens (Human))
Sequence (P08908 whole entry): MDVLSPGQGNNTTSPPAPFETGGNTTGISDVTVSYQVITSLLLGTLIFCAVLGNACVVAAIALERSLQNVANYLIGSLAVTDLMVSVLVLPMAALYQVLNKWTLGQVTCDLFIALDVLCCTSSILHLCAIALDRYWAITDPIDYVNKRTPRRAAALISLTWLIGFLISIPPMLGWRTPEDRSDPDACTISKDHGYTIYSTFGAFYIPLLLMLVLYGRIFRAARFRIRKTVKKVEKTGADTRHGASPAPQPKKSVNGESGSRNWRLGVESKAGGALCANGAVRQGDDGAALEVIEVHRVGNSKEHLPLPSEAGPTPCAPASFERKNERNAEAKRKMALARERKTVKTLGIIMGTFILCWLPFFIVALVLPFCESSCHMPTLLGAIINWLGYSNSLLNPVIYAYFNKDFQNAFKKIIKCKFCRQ
TEST: Test 2: agonist activity for human 5-HT1A receptor ([35S]GTPγS binding)
Format: biochemical
MEASUREMENT_CONTEXT: agonist activity in the presence of 10 μM of compound, relative to 100 μmol/L 5-HT
RECORDED_METRIC: Emax at 10 µM (%)
# output: bare number, implied unit %

// recorded Emax at 10 µM for Cn1cc2c(n1)CCN(CCN1CCN(c3nsc4ccccc34)CC1)C2=O [Example 36] : 78

// recorded Emax at 10 µM for Cc1noc2c1C(=O)N(CCN1CCC(c3noc4ccccc34)CC1)CC2 [Example 33] : 49

// recorded Emax at 10 µM for Cc1cc2c(cn1)C(=O)N(CCN1CCN(c3noc4ccccc34)CC1)CC2(C)C [Example 86] : 51

// recorded Emax at 10 µM for O=C1c2ncccc2CCN1CCN1CCC(c2noc3cccc(F)c23)CC1 [Example 141] : 44

// recorded Emax at 10 µM for Cc1cncc2c1CCN(CCN1CCC(c3noc4ccccc34)CC1)C2=O [Example 138] : 32

// recorded Emax at 10 µM for COc1ncc2c(n1)CCN(CCN1CCN(c3nsc4ccccc34)CC1)C2=O [Example 177] : 36

// recorded Emax at 10 µM for Cn1cnc2c1CCN(CCN1CCN(c3nsc4ccccc34)CC1)C2=O [Example 54] : 55

// recorded Emax at 10 µM for O=C1c2cn(C3CC3)nc2CCN1CCN1CCC(c2noc3ccccc23)CC1 [Example 76] : 35

// recorded Emax at 10 µM for O=C1c2cnn(C3CC3)c2CCN1CCN1CCC(c2noc3ccccc23)CC1 [Example 161] : 17

// recorded Emax at 10 µM for Cn1ncc2c1CCCC(CCN1CCN(c3nsc4ccccc34)CC1)C2=O (stereo not drawn) [Example 31] : 40

// recorded Emax at 10 µM for O=C1c2ncccc2CCN1CCN1CCC(c2noc3ccccc23)CC1 [Example 22] : 52

// recorded Emax at 10 µM for O=c1c2ncccc2ccn1CCN1CCN(c2noc3ccccc23)CC1 [Example 117] : 40

// recorded Emax at 10 µM for O=C1c2oc(C3CC3)nc2CCN1CCN1CCN(c2nsc3ccccc23)CC1 [Example 67] : 65

// recorded Emax at 10 µM for Cn1cnc2c1CCCN(CCN1CCC(c3noc4ccccc34)CC1)C2=O [Example 101] : 47

// recorded Emax at 10 µM for O=C1c2cnc(C3CC3)nc2CCN1CCN1CCN(c2nsc3ccccc23)CC1 [Example 94] : 53

// recorded Emax at 10 µM for Cc1cc2c(n1C)CCCN(CCN1CCN(c3nsc4ccccc34)CC1)C2=O [Example 167] : 60

// recorded Emax at 10 µM for O=C1c2cn(C3CC3)nc2CCN1CCN1CCN(c2nsc3ccccc23)CC1 [Example 75] : 56

// recorded Emax at 10 µM for O=C1c2c(Br)nn(Br)c2CCN1CCN1CCN(c2nsc3ccccc23)CC1 [Example 69] : 45
